Assay: Terminal half life in rat at 0.5 ml/kg, iv
Assay type: ADME, organism-based
Conditions: in vivo
quantityKind: half-life (h)
Just the number in h, nothing appended.

Which half-life is listed for CNC(=O)c1ccc(Nc2nc3cccc(-c4cc(F)c(CN5CCOCC5)c(F)c4)c3o2)cc1C ? 3.2

====

Test: Tmax in rat at 2.5 ml/kg, po
Format: ADME, organism-based
Conditions: in vivo
quantityKind: Tmax (h)
# unit: h | format: bare number

What does the record list as Tmax for CNC(=O)c1ccc(Nc2nc3cccc(-c4cc(F)c(CN5CCOCC5)c(F)c4)c3o2)cc1C ? 3.5

====

Record: IC50 reported on Non-receptor tyrosine-protein kinase TYK2 (Homo sapiens, UniProt P29597).
Sequence (P29597 whole entry): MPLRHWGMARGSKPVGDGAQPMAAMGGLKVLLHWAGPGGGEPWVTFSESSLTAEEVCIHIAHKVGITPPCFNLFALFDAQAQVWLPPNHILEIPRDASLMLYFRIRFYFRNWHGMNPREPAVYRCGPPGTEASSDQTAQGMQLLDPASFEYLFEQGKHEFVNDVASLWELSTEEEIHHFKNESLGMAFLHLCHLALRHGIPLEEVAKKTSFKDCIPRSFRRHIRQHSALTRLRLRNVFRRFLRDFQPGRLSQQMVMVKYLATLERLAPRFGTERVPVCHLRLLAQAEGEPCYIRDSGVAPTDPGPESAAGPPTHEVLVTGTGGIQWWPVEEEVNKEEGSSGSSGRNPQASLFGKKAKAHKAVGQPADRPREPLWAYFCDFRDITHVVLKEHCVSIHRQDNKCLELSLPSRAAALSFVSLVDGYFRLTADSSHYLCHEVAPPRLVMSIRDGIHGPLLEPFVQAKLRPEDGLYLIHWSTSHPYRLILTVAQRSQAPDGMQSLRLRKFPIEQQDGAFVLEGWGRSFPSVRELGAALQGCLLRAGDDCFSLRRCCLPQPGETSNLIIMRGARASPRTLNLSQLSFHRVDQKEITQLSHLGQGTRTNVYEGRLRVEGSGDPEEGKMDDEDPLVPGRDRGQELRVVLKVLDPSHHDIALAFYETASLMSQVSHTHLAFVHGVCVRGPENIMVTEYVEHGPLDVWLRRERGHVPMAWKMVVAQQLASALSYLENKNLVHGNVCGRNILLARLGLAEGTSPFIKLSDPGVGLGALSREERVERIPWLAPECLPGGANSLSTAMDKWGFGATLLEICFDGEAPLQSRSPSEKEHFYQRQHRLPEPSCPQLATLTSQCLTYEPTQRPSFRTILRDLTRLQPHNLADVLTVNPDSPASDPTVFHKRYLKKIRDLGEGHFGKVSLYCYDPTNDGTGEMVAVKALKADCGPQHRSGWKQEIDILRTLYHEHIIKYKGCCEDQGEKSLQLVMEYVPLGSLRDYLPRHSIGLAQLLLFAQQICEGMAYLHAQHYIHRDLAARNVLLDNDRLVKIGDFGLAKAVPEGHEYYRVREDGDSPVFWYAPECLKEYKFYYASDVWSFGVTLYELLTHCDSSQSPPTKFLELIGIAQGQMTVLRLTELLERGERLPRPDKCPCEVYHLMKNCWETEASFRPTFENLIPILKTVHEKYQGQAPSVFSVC
Note: unit nM is implicit; provide only the numeric part.

Here is how some compounds turned out for IC50.
>>> df
                               recordsmiles  endpointvalue
0  COc1cc(Nc2nc3cccc(-c4ccc(C(=O)N5CCOCC5)c(F)c4)c3o2)cc(OC)c1OC             63
1  COc1cc(Nc2nc3cccc(-c4ccc5ncccc5c4)c3o2)cc(OC)c1OC           1400

Please tell me: IC50 of Cc1cc(Nc2nc3cccc(-c4cc(F)c(CN5CCOCC5)c(F)c4)c3o2)ccc1C(=O)N(C)C , system Non-receptor tyrosine-protein kinase TYK2 (Homo sapiens, UniProt P29597)? 200

Missing value: IC50, Non-receptor tyrosine-protein kinase TYK2 (Homo sapiens, UniProt P29597), entry Cc1cc(Nc2nc3cccc(-c4cc(F)c(CN5CCOCC5)c(F)c4)c3o2)ccc1C(=O)NCCCN(C)C . Fill in? 97

// fetch Non-receptor tyrosine-protein kinase TYK2 (Homo sapiens, UniProt P29597) IC50 for CNC(=O)c1ccc(Nc2nc3cccc(-c4cc(F)c(CN5CCOCC5)c(F)c4)c3o2)cc1C 120

Give recorded IC50 with Non-receptor tyrosine-protein kinase TYK2 (Homo sapiens, UniProt P29597) for the following compound: COc1cc(Nc2nc3cccc(-c4ccccn4)c3o2)cc(OC)c1OC 640

====

IC50 data for Tyrosine-protein kinase JAK1 (Homo sapiens, UniProt P23458) follow.
Remember to follow the number with its unit.

Use these answered entries as a reference point.
>>> df
                               recordsmiles  endpointvalue
0  COc1cc(Nc2nc3cccc(-c4cccc(NS(C)(=O)=O)c4)c3o2)cc(OC)c1OC        0.68 µM
1  CNC(=O)c1ccc(Nc2nc3cccc(-c4cc(F)c(CN5CCOCC5)c(F)c4)c3o2)cc1C       0.048 µM
2  COc1cc(Nc2nc3cccc(-c4ccccn4)c3o2)cc(OC)c1OC        0.76 µM
3  COc1cc(Nc2nc3cccc(-c4ccc(C(=O)N5CCOCC5)cc4)c3o2)cc(OC)c1OC      0.0275 µM

Now for the compound whose IC50 we want.
Entry under review: COc1cc(Nc2nc3cccc(-c4ccccc4)c3o2)cc(OC)c1OC . Reported IC50? 0.71 µM

====

Target: Tyrosine-protein kinase JAK2 (Homo sapiens)
Sequence (O60674 whole entry): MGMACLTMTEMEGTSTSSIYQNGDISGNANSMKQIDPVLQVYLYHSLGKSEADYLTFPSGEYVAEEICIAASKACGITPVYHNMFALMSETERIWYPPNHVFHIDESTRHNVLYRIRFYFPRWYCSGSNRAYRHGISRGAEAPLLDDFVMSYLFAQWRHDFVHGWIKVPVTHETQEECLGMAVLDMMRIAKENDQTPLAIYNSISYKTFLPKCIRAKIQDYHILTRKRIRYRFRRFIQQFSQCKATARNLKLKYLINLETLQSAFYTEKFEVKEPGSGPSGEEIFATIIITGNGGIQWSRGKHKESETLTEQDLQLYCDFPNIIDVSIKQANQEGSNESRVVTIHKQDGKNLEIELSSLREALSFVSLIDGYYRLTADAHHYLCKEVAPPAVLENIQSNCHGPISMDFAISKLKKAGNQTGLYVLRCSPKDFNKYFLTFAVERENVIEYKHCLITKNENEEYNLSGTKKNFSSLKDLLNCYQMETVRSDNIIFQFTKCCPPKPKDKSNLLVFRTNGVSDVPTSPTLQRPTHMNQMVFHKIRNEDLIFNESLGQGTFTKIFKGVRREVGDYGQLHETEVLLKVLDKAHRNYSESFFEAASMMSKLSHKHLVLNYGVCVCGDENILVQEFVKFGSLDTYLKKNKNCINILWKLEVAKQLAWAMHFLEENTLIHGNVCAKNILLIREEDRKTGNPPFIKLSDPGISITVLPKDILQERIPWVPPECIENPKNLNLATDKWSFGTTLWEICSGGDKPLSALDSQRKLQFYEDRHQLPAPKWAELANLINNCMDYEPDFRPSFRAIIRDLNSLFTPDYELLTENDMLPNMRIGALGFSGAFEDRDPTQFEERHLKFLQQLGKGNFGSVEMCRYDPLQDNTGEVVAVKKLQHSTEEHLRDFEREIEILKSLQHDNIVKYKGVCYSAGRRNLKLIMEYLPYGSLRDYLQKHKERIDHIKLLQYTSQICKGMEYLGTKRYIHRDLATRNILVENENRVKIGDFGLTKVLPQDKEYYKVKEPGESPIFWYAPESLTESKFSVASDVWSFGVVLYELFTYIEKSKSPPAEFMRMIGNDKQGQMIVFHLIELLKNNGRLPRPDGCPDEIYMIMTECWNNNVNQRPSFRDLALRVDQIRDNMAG
Output true for records whose IC50 is lower than 100 nM, false for records at or above 100 nM.

>>> print(df.to_string())
                               recordsmiles  categorylabel
0  Cc1cc(Nc2nc3cccc(-c4cc(F)c(CN5CCOCC5)c(F)c4)c3o2)ccc1C(=O)N(C)C           true
1  CN(C)C(=O)c1ccc(Nc2nc3cccc(-c4ccc(C(=O)N5CCOCC5)cc4)c3o2)cc1           true
2  COc1cc(Nc2nc3cccc(-c4cccc(Cl)c4)c3o2)cc(OC)c1OC          false

A record lists COc1cc(Nc2nc3cccc(-c4ccccn4)c3o2)cc(OC)c1OC . Is its IC50 below 100 nM? false

A record lists COc1cc(Nc2nc3cccc(-c4ccc(C(=O)N5CCOCC5)cc4)c3o2)cc(OC)c1OC . Is its IC50 below 100 nM? true

Bench note: check whether COc1cc(Nc2nc3cccc(-c4ccc5ncccc5c4)c3o2)cc(OC)c1OC shows IC50 below 100 nM true
